experiment: Clearance in dog at 0.2 mg/kg, po and 0.1 mg/kg, iv; type: ADME, organism-based, Canis lupus familiaris; conditions: in vivo
recorded.endpoint: clearance (mL/min/kg)
Please give a number only; it is taken to be in mL/min/kg.

Which measured clearance value corresponds to "CC(C)(C)CN1CCC2(CC1)CN(c1ccccc1NC(=O)Nc1ccc(OC(F)(F)F)cc1)c1ccccc12" ? 5.3

----------
test: Oral bioavailability in dog at 0.2 mg/kg; format: ADME, organism-based, Canis lupus familiaris; details: in vivo
recorded.endpoint: bioavailability (%)
Please give a number only; it is taken to be in %.

Which measured bioavailability value corresponds to "CC(C)(C)CN1CCC2(CC1)CN(c1ccccc1NC(=O)Nc1ccc(OC(F)(F)F)cc1)c1ccccc12" ? 55

Recorded values, source ChEMBL document CHEMBL3102727.
